- Tested on: mice (tail-flick)
- test: Duration of action, mouse tail-flick graded, % activity at MTFQ ED50
- Assay type: in vivo, Male Charles River mice (Swiss Strain)
- setup conditions: 90', sc, data referred to the free base
Where a name gives a salt, the structure may show the parent alone.
quantity measured: DURATION OF ACTION M. TAIL-FLICK GRADED % ACTIVITY AT MTFQ ED50, 90' (%)
Unit % implied. Number only.

# molecule, recorded result
records = [
    ("CC1(C)CCN(C(=O)Cc2ccc(Cl)c(Cl)c2)C(CN2CCC(O)C2)C1 (stereo not drawn) [Example 7, hydrochloride hemihydrate]", 74),
    ("CC1(C)CN(C(=O)Cc2ccc(Cl)c(Cl)c2)C(CN2CCC(O)C2)c2ccccc21 (stereo not drawn) [Example 14, hydrochloride]", 85),
    ("O=C1CCCc2cc(CC(=O)N3CCCCC3CN3CCC(F)C3)ccc21 (stereo not drawn) [Example 22, hydrochloride]", 40),
    ("CC1(C)CCCN(C(=O)Cc2ccc(Cl)c(Cl)c2)C1CN1CCC(O)C1 (stereo not drawn) [Example 6, hydrochloride]", 100),
    ("CC1(C)CCCN(C(=O)Cc2ccc(C(F)(F)F)cc2)C1CN1CCC(O)C1 (stereo not drawn) [Example 5, hydrochloride]", 82),
]

Below: the item to evaluate.
Request - read-out DURATION OF ACTION M. TAIL-FLICK GRADED % ACTIVITY AT MTFQ ED50, 90' | tested on mice (tail-flick) | molecule CC1(C)CCCN(C(=O)Cc2ccc(C(F)(F)F)cc2)C1CN1CCC(F)C1 (stereo not drawn) [Example 23, hydrochloride]
86
